# target-entity: Nuclear receptor subfamily 1 group I member 2 (Homo sapiens) (UniProt O75469)
# Sequence (O75469 whole entry, looked up): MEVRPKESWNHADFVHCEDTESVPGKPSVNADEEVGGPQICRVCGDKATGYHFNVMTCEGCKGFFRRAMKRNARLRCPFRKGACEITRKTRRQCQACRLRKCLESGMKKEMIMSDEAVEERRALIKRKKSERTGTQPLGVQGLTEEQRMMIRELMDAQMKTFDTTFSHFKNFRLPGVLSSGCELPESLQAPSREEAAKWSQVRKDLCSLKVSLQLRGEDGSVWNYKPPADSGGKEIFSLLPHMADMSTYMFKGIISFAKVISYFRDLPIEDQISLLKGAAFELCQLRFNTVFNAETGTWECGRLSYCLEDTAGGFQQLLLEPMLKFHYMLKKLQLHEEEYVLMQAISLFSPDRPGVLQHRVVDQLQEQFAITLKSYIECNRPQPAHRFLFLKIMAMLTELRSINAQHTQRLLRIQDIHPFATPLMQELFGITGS
# assay-procedure: Dual reporter qHTS for agonist of Pregnane X Receptor (hPXR) against the NCATS DSHEA and TCM libraries: Luminescence readout (AID 1920059)
# conditions: hPXR dual reporter cells, luciferase luminescence agonist; series mostly up to 40 µM
Records with an inconclusive call do not appear. The source made the active and inactive calls. Calls come from the whole dose curve; as a rule, active = well fitted activation curve with a large enough effect; inconclusive = small, poorly fitted or top-dose-only effect; inactive = flat fitted curve, though single readings scatter.
Outcomes you can answer with include only these: active, inactive

{"compound": "CN(CC(=O)O)C(=N)N", "group": "inactive"}
{"compound": "CC(=O)O[C@@H]1CC[C@@]2(C)[C@@H](CC[C@]3(C)[C@@H]2C(=O)C=C2[C@@H]4[C@@H](C)[C@H](C)CC[C@]4(C)CC[C@]23C)[C@@]1(C)C(=O)O", "group": "inactive"}
{"compound": "OCC1=C[C@@H](O)[C@@H]2C=CO[C@@H](OC3O[C@H](CO)[C@@H](O)[C@H](O)[C@H]3O)[C@H]12 (stereo partly specified)", "group": "inactive"}
{"compound": "COc1cc(-c2oc3cc(O)cc(O)c3c(=O)c2O)ccc1O", "group": "inactive"}

Lookup: GET /call?item= O=C(/C=C/c1ccc(O)c(O)c1)O[C@@H]1CC(O)(C(=O)O)C[C@@H](OC(=O)/C=C/c2ccc(O)c(O)c2)C1O (stereo partly specified) returns the recorded outcome of this test.
Found: inactive

Lookup: What did this assay record as the result for O=C(/C=C/c1ccc(O)c(O)c1)OC1[C@H](O)CC(O)(C(=O)O)C[C@@H]1O (stereo partly specified) ?
Found: inactive

====

# target-entity: Nuclear receptor subfamily 1 group I member 3 (Homo sapiens)
# assay-procedure: Primary qHTS for agonist of constitutive androstane receptor (CAR) against the NCATS DSHEA and TCM libraries (AID 1794839);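 for activation: HepG2 cells expressing human CAR with a CYP2B6 reporter plus PK11195 antagonist; luciferase reporter luminescence read with ONE-Glo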
# conditions: CAR agonist reporter cells, qHTS luminescence, CAR antagonist co-added at 0.75 µM; series mostly up to 40 µM
Results filed as inconclusive are left out. Activity calls are given as the source filed them. Calls come from the whole dose curve; as a rule, active = well fitted activation curve with a large enough effect; inconclusive = small, poorly fitted or top-dose-only effect; inactive = flat fitted curve, though single readings scatter.
Result category, one only: active, inactive

# count of solved cases: 3
{"chemical-structure": "COc1ccc(-c2coc3cc(O[C@@H]4O[C@H](CO)[C@@H](O)[C@H](O)[C@H]4O)ccc3c2=O)cc1", "group": "active"}
{"chemical-structure": "CCCCCCCCCCCCCCCCCCCCCC(=O)O", "group": "inactive"}
{"chemical-structure": "O=C(/C=C/c1ccc(O)c2c1[C@H](C(=O)O)[C@@H](c1ccc(O)c(O)c1)O2)O[C@H](Cc1ccc(O)c(O)c1)C(=O)O", "group": "inactive"}

Lookup: Could you check what this test reported for CC(C)=CCC[C@](C)(O[C@@H]1O[C@H](CO)[C@@H](O)[C@H](O)[C@H]1O)[C@H]1CC[C@]2(C)[C@@H]1[C@H](O)C[C@@H]1[C@@]3(C)CC[C@H](O)C(C)(C)[C@@H]3[C@@H](O[C@@H]3O[C@H](CO)[C@@H](O)[C@H](O)[C@H]3O[C@@H]3O[C@@H](C)[C@H](O)[C@@H](O)[C@H]3O)C[C@]12C ?
Found: inactive

Lookup: Could you please tell me the result logged for COc1cc(/C=C/c2ccccc2)oc(=O)c1 in this assay?
Found: active

Lookup: Recorded call for CCCCCCCCC[C@@H](O)CC(=O)CCc1ccc(O)c(OC)c1 ?
Found: active

Lookup: Recorded test call requested for CCCCCCCC/C=C\CCCCCCCCCCCCCC(=O)O
Found: inactive

Lookup: Hi team, can someone confirm the assay call for COc1ccc(/C=C/c2cc(OC)cc(=O)o2)cc1 ?
Found: active

====

# assay-procedure: Cell Viability - LYMP2-006 (AID 978);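 note: cells exposed to compound for 24 hours; nearly all actives have a fitted effect of over 60% in size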
# conditions: LYMP2-006 lymphoblastoid cell viability, qHTS; series mostly up to 92.2 µM
Records with an inconclusive call do not appear. Calls of active or inactive are those of the source. Calls follow the shape of the dose curve; as a rule, active = well fitted cell-killing curve with a large enough effect; inconclusive = small, poorly fitted or top-dose-only effect; inactive = flat fitted curve, though single readings scatter.
assay-metric: outcome

{"compound": "CCCCCCCCO", "assay-metric": "outcome", "reading": "inactive"}
{"compound": "C/C=C\\c1ccc(OC)cc1", "assay-metric": "outcome", "reading": "inactive"}
{"compound": "Clc1cc(Cl)c(Cl)cc1Cl", "assay-metric": "outcome", "reading": "inactive"}
{"compound": "COC(=O)c1ccc(C=O)cc1", "assay-metric": "outcome", "reading": "inactive"}

Lookup: Fill in reported outcome for this entry: Cc1cccc([N+](=O)[O-])c1C
Found: inactive

Lookup: Determine from records and report outcome for O=C(/C=C/c1ccc(O)c(O)c1)O[C@@H](C(=O)O)[C@@H](OC(=O)/C=C/c1ccc(O)c(O)c1)C(=O)O
Found: inactive

====

# System: ATS189
# assay-procedure: qHTS profiling for inhibitors of Plasmodium falciparum proliferation (AID 504749); note: nearly all actives have a fitted effect of over 60% in size
# conditions: P. falciparum in erythrocytes, SYBR Green DNA, 72 h; series mostly up to 28.7 µM
Results filed as inconclusive are left out. Activity calls are given as the source filed them. Calls follow the shape of the dose curve; as a rule, active = well fitted inhibition curve with a large enough effect; inconclusive = small, poorly fitted or top-dose-only effect; inactive = flat fitted curve, though single readings scatter.
Choose one outcome from this list and give only that: active, inactive

{"molecule": "O=C(O)c1cc(O)c2c(c1)[C@H]([C@H]1c3cc(C(=O)O)cc(O)c3C(=O)c3c(O[C@@H]4OC(CO)C(O)C(O)C4O)cccc31)c1cccc(O[C@@H]3OC(CO)C(O)C(O)C3O)c1C2=O (stereo not given in full)", "target-entity": "ATS189", "group": "inactive"}
{"molecule": "C1OCOCO1", "target-entity": "ATS189", "group": "inactive"}
{"molecule": "CN1CC[C@H](CN2c3ccccc3Sc3ccccc32)C1", "target-entity": "ATS189", "group": "active"}
{"molecule": "CC(C)CN(C[C@@H](O)[C@H](Cc1ccccc1)NC(=O)O[C@H]1CCOC1)S(=O)(=O)c1ccc(N)cc1", "target-entity": "ATS189", "group": "inactive"}
{"molecule": "CO[C@@H]1[C@@H](OC2OC(C)C(OC3CC(C)(O)C(OC(=O)CC(C)C)C(C)O3)C(N(C)C)C2O)[C@@H](CC=O)C[C@@H](C)C(=O)/C=C\\C2O[C@H]2C[C@@H](C)OC(=O)C[C@H]1OC(C)=O (stereo not given in full)", "target-entity": "ATS189", "group": "active"}

Lookup: Fill in: this test's call for CN(C)CCCCCCN(C)C is ___
Found: inactive

Lookup: I would be grateful if you could indicate the recorded call for CC(C)(CO)C(O)C(=O)NCCCC(=O)O (stereo not given) .
Found: active

Lookup: Dear colleague, could you share the recorded outcome for S=C1NC=NC2N=CNC12 (stereo not given) when you have a moment?
Found: inactive

Lookup: What did this assay record as the result for CCC(=O)O[C@@H](OP(=O)(CCCCc1ccccc1)CC(=O)N1C[C@H](C2CCCCC2)C[C@H]1C(=O)O)C(C)C (stereo not given in full) ?
Found: inactive

Lookup: Hi, do you know how CC1(C)S[C@@H]2[C@H](NC(=O)COc3ccccc3)C(=O)N2[C@H]1C(=O)O came out in this test?
Found: inactive

Lookup: What call does the record list for CC(=O)OC1CC2CCC1(C)C2(C)C (stereo not given) ?
Found: inactive

Lookup: Which result was noted for this molecule in the test: C=C[C@]1(C)C[C@@H](OC(=O)CSCCN(CC)CC)[C@]2(C)C(C)CC[C@]3(CCC(=O)[C@H]32)[C@@H](C)[C@@H]1O (stereo not given in full)
Found: active

Lookup: For CO/N=C(/C(=O)N[C@@H]1C(=O)N2C(C(=O)O)=CCS[C@H]12)c1csc(N)n1 , which call appears in the assay record?
Found: inactive

Lookup: // outcome(item) with item = Cc1cc(CC(C)CC(C)(C)C)n(O)c(=O)c1 (stereo not given)
Found: active

Lookup: Identify the outcome logged in this assay for the molecule shown: CCC(C)n1ncn(-c2ccc(N3CCN(c4ccc(OCC5COC(Cn6cncn6)(c6ccc(Cl)cc6Cl)O5)cc4)CC3)cc2)c1=O (stereo not given)
Found: inactive

====

# target-entity: Rap guanine nucleotide exchange factor 4 (Homo sapiens)
# assay-procedure: Confirmatory qHTS for agonist of cAMP-regulated guanine nucleotide exchange factor 4 (EPAC2) (AID 1645884);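 note: nucleotide exchange releases bodipy-GDP from Rap1 and this lowers its fluorescence; potency is the fitted concentration of half-maximal effect; nearly all actives have a fitted effect of over 65% in size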
# conditions: EPAC2 GEF activity, Rap1B-BODIPY-GDP fluorescence; series mostly up to 154 µM
Results filed as inconclusive are left out. Calls of active or inactive are those of the source. Calls follow the shape of the dose curve; as a rule, active = well fitted activation curve with a large enough effect; inconclusive = small, poorly fitted or top-dose-only effect; inactive = no such curve, though single readings can be large or run the other way.
assay-metric: Potency

Below, each entry is followed by its recorded Potency result.
{"compound": "COc1ccc(OC)c(/C=C/c2nc3ccccc3[nH]c2=O)c1", "target-entity": "Rap guanine nucleotide exchange factor 4 (Homo sapiens)", "Potency": "100 µM (active)"}
{"compound": "CCCCN(C)C1=CC2=CC(=C(C#N)C#N)CCC2CC1 (stereo unspecified)", "target-entity": "Rap guanine nucleotide exchange factor 4 (Homo sapiens)", "Potency": "126 µM (active)"}
{"compound": "Nc1c(C(=O)C2CC2)sc2nc(-c3cccs3)cc(C(F)(F)F)c12", "target-entity": "Rap guanine nucleotide exchange factor 4 (Homo sapiens)", "Potency": "100 µM (active)"}
{"compound": "N#CC1=C(N)OC2=C(CC/C2=C\\c2ccccc2)C1c1ccccc1 (stereo unspecified)", "target-entity": "Rap guanine nucleotide exchange factor 4 (Homo sapiens)", "Potency": "112 µM (active)"}
{"compound": "O=C(Nc1ncccc1O)c1c(O)c2ccccc2[nH]c1=O", "target-entity": "Rap guanine nucleotide exchange factor 4 (Homo sapiens)", "Potency": "100 µM (active)"}

Lookup: Please report the measured Potency for N#C/C(=C/c1ccc(N2CCCCC2)o1)C(=O)Nc1ccc(Cl)cc1
Found: 100 µM (active)
